- target: human M2 receptor (Homo sapiens, UniProt P08172)
- Construct: made in house; host or cells: Sf9 insect cells (baculovirus)
- method.summary: Muscarinic M2 competition binding assay ([3H]QNB, Sf9 membranes)
- assay.context: hM2 receptor Ki
For each entry below, report its Ki value.

O=C1CCN2CCCC1C2 (stereo not drawn) [Compound 9, 1-Azabicyclo[3.3.1]nonan-4-one] : > 100 µM
CN(C)CC1CCC2CN1CCC2=O (stereo not drawn) : > 100 µM

Please give the measured Ki for this compound: CCOC(=O)C1=C(O)C2CCCN(C1)C2 (stereo not drawn) 2.85 µM

* * *

- target: human M2 receptor (Homo sapiens, UniProt P08172)
- Construct: made in house; host or cells: Sf9 insect cells (baculovirus)
- Sequence (P08172 1-466): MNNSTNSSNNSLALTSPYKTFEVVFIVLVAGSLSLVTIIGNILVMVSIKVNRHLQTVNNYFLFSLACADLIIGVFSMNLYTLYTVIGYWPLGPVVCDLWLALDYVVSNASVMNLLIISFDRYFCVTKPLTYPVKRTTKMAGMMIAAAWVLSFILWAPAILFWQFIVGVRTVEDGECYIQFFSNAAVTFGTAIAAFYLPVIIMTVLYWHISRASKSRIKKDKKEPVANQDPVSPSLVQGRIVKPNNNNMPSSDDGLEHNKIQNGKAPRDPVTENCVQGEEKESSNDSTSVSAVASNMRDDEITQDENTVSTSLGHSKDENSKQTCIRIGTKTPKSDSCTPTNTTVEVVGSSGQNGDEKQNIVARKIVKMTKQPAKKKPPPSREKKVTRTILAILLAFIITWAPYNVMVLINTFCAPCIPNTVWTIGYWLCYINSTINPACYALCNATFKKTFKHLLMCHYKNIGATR
- method.summary: Muscarinic M2 competition binding assay ([3H]QNB, Sf9 membranes)
- assay.context: read-out: hM2 receptor Ki
For each entry below, report its pKi value.
Answers are plain numbers, as −log10 of the molar value.

Recorded pKi, per entry:
CCOC(=O)C1=C(O)[C@H]2CC[C@H](COCc3ccccc3)N(C1)C2 (relative stereo) [Compound 5] : 7.07
CCOC(=O)C1=C(O)C2CCC(CN(C)C)N(C1)C2 (centres unmarked) [Compound 8] : 4.32
CCOC(=O)C1=C(O)C2CCC(CN(C)C)N(C1)C2 (centres unmarked) [Compound 7] : 4.62

Please give the measured pKi for this compound: CCOC(=O)C1=C(O)[C@H]2CC[C@@H](COCc3ccccc3)N(C1)C2 (relative stereo) [Compound 6] 5.13

* * *

- target: human M1 receptor (Homo sapiens)
- Construct: made in house; host or cells: Sf9 insect cells (baculovirus)
- Sequence (P11229 1-460): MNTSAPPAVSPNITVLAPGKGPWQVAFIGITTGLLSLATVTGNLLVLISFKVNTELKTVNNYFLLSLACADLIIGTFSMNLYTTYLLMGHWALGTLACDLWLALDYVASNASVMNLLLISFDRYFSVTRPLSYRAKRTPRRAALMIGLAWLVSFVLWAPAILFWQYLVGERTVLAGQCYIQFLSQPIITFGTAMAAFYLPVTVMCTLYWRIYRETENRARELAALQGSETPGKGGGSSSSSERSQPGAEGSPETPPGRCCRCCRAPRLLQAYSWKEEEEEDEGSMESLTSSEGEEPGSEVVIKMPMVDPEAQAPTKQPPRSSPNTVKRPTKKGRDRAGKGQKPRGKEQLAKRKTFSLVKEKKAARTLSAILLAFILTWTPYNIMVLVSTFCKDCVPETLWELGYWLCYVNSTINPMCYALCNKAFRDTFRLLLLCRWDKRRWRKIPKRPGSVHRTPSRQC
- method.summary: biochemical
- Assay type: binding
- assay.context: read-out: hM1 receptor Ki
For each entry below, report its pKi value.
Numbers only, as −log10 of the molar value.

CCOC(=O)C1=C(O)C2CCC(CN(C)C)N(C1)C2 (centres unmarked) [Compound 8] : 4.91
CCOC(=O)C1=C(O)C2CCC(CN(C)C)N(C1)C2 (centres unmarked) [Compound 7] : 4.77

Parameter requested: pKi. Apply to each item below.
1. CCOC(=O)C1=C(O)[C@H]2CC[C@H](COCc3ccccc3)N(C1)C2 (relative stereo)
2. CCOC(=O)C1=C(O)[C@H]2CC[C@@H](COCc3ccccc3)N(C1)C2 (relative stereo)

1: 6.69; 2: 4.99
